EXPERIMENT DESCRIPTION: Dissociation constant, pKa of compound
Assay type: physicochemical
REPORTED PROPERTY: pKa
Lab note: record just the number, no unit beside it.

Prompt: Can you look up the measured pKa of Oc1ccc(Br)c2nc3cc(Cl)c(Cl)cc3nc12 for me?
Response: 8.42

###

Let's look at some compounds and their measured MBC.
System: Enterococcus faecium
EXPERIMENT DESCRIPTION: Antibiofilm activity against […]-resistant Enterococcus faecium ATCC 700221 assessed as biofilm eradication incubated for 24 hrs by CBD assay
Assay type: functional
CONDITIONS USED: Enterococcus faecium, ATCC 700221, 24 h
Write the answer as a number in µM, unit excluded.

{"columns": ["MOLECULE SMILES", "VALUE UNITS", "MBC"],
 "data": [
  ["CCCCc1cc(Br)c(O)c2nc3ccccc3nc12", "µM", 2]
]}

Prompt: Can you look up the measured MBC of Cc1ccc2c(Br)cc(Br)c(O)c2n1 for me?
Response: 2

Prompt: Can you look up the measured MBC of Oc1c(Br)cc(Br)c2nc3cc(Cl)c(Cl)cc3nc12 for me?
Response: 0.39

Prompt: Can you look up the measured MBC of Oc1c(Br)cc(I)c2nc3ccccc3nc12 for me?
Response: 3

Prompt: Can you look up the measured MBC of Oc1c(Br)cc(Br)c2nc3cc(Br)c(Br)cc3nc12 for me?
Response: 0.39

Prompt: Can you look up the measured MBC of Oc1ccc(I)c2nc3cc(Cl)c(Cl)cc3nc12 for me?
Response: 3.13
